The entries below come with measured protein stability index values attached.
Assay: protein stability index of a GFP-peptide fusion (GPS, HEK-293T) (PSI 1-6); higher = more stable;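 note: 24-mer peptide tiles fused after GFP, lentivirally expressed, FACS-sorted into six equal bins by GFP/DsRed ratio, decoded by Illumina sequencing, PSI is the read-weighted mean bin number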
Details: treatment: DMSO; c terminus: a fixed tail appended
measured_parameter: protein stability index

sequence_text="KGKFSTDTKGKPTSRTQVYKPPAL [ZC2HC1A]" measured_parameter="protein stability index" value_observed=3.77
sequence_text="MLLFLSVPQPRPPGARTRAGAARV [FBXO33]" measured_parameter="protein stability index" value_observed=2.31
sequence_text="MGNSHCVPQAPRRLRASFSRKPSL [PLEKHN1]" measured_parameter="protein stability index" value_observed=3.66
sequence_text="SGPPASYCAKLCEPQWFYEETESS [C8orf76]" measured_parameter="protein stability index" value_observed=4.02
sequence_text="GYQLSDHTVGVLFNNGAHMSLLPD [PLK2]" measured_parameter="protein stability index" value_observed=3.08
sequence_text="EESTPGQTNSETAVVALTQDQPSE [HDAC6]" measured_parameter="protein stability index" value_observed=5.49
sequence_text="QGKADGLYPNPRERSSFYSCAGGR [CHIT1]" measured_parameter="protein stability index" value_observed=3.64
sequence_text="ECAKAFSRSAILIQHRRTHTDSKY [ZNF396]" measured_parameter="protein stability index" value_observed=2.55
sequence_text="DGASQDCPPLPAGVSFHIDSAELE [FBXO34]" measured_parameter="protein stability index" value_observed=5.39
sequence_text="QEHQSALEEAKQPKNDNVVIPECA [SMOC2]" measured_parameter="protein stability index" value_observed=5.51
sequence_text="SHFSRLSEEKLALDNNASASGNAT [C10orf62]" measured_parameter="protein stability index" value_observed=5.03
sequence_text="WYWHGDVNSNKVVMSGVKCSGTEL [LOXL2]" measured_parameter="protein stability index" value_observed=2.68
sequence_text="VVQTLYPFSSVTEEELNFEKGETM [NCK2]" measured_parameter="protein stability index" value_observed=3.66
sequence_text="EAAGVVVEEELFHQQGTPRASNRS [LMNB1]" measured_parameter="protein stability index" value_observed=5.31
sequence_text="STSEDSLVKQECIKEVVEKREACH [FAN1]" measured_parameter="protein stability index" value_observed=5.52
sequence_text="ALPIATAFTEYVHAYFRGHSPSCL [FCHO1]" measured_parameter="protein stability index" value_observed=2.73
sequence_text="ESTRELGELLGEARYYLVQGLIED [KCTD13]" measured_parameter="protein stability index" value_observed=2.88
sequence_text="AAQNGDESSTRLLLEKNASVNEVD [RIPK4]" measured_parameter="protein stability index" value_observed=5.37
sequence_text="ETCDLGKIKPEARRYLEKSIKMGK [NLN]" measured_parameter="protein stability index" value_observed=4.09
sequence_text="TLLLRLNATDPDEGTNGQLDYSFG [PCDHGC5]" measured_parameter="protein stability index" value_observed=2.88
sequence_text="SFGFPRTVKHIDAALSEENTGKTY [MMP1]" measured_parameter="protein stability index" value_observed=4.13
sequence_text="VFIDFSVYNANINLFCVLRLVVEF [PKD2L1]" measured_parameter="protein stability index" value_observed=3.51
sequence_text="SAAGIEARSRALRRRWCPAGIMLL [SPACA3]" measured_parameter="protein stability index" value_observed=2.3
sequence_text="HGAHKHHPIEEAAEEHREKLLKQM [TRIM43]" measured_parameter="protein stability index" value_observed=5.17
sequence_text="TESEARYSSQLSQVQSLITNVESQ [KRT33B]" measured_parameter="protein stability index" value_observed=4.66
sequence_text="ARKAMRNGISPIIIDNTNLHAWEM [N4BP2L1]" measured_parameter="protein stability index" value_observed=2.33
sequence_text="PDEGSDLFYDDYYEDGEVEEEADS [CDC34]" measured_parameter="protein stability index" value_observed=5.36
sequence_text="SDSESKPDQEAEPQEAAGAQGRAG [EPB41L3]" measured_parameter="protein stability index" value_observed=5.54
sequence_text="WRWQLYAAQSTKSPWNFLGDELYE [CLPTM1]" measured_parameter="protein stability index" value_observed=2.79
sequence_text="RPATEAELLTCHSAEYVGHLRATE [HDAC6]" measured_parameter="protein stability index" value_observed=4.1
sequence_text="EHACTVRNLARSQSVKMKDKLKID [TAF7L]" measured_parameter="protein stability index" value_observed=4.75
sequence_text="STKGSRSNLSTRDASILTEMPTQP [NETO1]" measured_parameter="protein stability index" value_observed=4.52
sequence_text="YSHEVSLTADSRKSHLIFPQPNYA [PCDHGA10]" measured_parameter="protein stability index" value_observed=2.79
sequence_text="GPPGSPGRAGAVGTPGERGPPGPP [EMID1]" measured_parameter="protein stability index" value_observed=5.32
sequence_text="LNEKRTFFHLSALKGYLYAVGGRN [KLHL13]" measured_parameter="protein stability index" value_observed=2.49
sequence_text="VVLDMEEGTLGYAIGGTYLGPAFR [SPSB2]" measured_parameter="protein stability index" value_observed=2.37
sequence_text="GLAYDRKKVSKAAILARIKRTGDG [SCD]" measured_parameter="protein stability index" value_observed=3.27
sequence_text="NLEGNELQRHADEFLLDLGHHERS [FUT8]" measured_parameter="protein stability index" value_observed=4.84
sequence_text="FDTNAEGCILQWKKIYCRICMAQI [ZBED1]" measured_parameter="protein stability index" value_observed=2.39
sequence_text="PGSQTAVKNSNRYDVEMTDELVGL [FBXO34]" measured_parameter="protein stability index" value_observed=4.98
sequence_text="GPGIVGNVLVDPSARIGQNCSIGP [GMPPB]" measured_parameter="protein stability index" value_observed=3.74
sequence_text="EKLCSISLSHINAYACLVCGKYFQ [USP39]" measured_parameter="protein stability index" value_observed=2.67
sequence_text="KLLPHQPRIVEMKKGSNGYGFYLR [PDZK1]" measured_parameter="protein stability index" value_observed=2.37
sequence_text="NVPSSSLPAQPNRKPGMSSTARRS [CHMP4C]" measured_parameter="protein stability index" value_observed=4.9
sequence_text="RSNTLRERSQVRGSAPPRATPGGG [PCDHGC5]" measured_parameter="protein stability index" value_observed=4.68
sequence_text="NAKLASDDFRSKYQTEQSLRLLVE [KRT34]" measured_parameter="protein stability index" value_observed=3.16
sequence_text="EDEEEEEGENYQKGERGEDSSEEK [CHGB]" measured_parameter="protein stability index" value_observed=5.62
sequence_text="RNRKLKCTFSLTHPANRSCRETGS [SLC22A15]" measured_parameter="protein stability index" value_observed=3.37
sequence_text="DTSFLPDRDREEEENRLREELRQE [FAM50A]" measured_parameter="protein stability index" value_observed=5.17
sequence_text="EKERRKKQQWEIMHKHNETSQKIA [RSPH3]" measured_parameter="protein stability index" value_observed=4.44
sequence_text="SLGRHKRTHTGEKPYTCSVCGKSF [ZNF8]" measured_parameter="protein stability index" value_observed=3.2
sequence_text="AAPEGKRSLANGPNAGEQPGQVAG [EID1]" measured_parameter="protein stability index" value_observed=5.44
sequence_text="NVLLFKKQNPGKFCLLSCGILTFL [RETREG3]" measured_parameter="protein stability index" value_observed=2.43
sequence_text="SSELTDSLRTLKPEGNILRDRFKS [NOP53]" measured_parameter="protein stability index" value_observed=4.42
